System: HeLa
ASSAY_METHOD_TEXT: HeLa toxicity: nuclei-count effect normalised to DMSO (DMSO = 0); higher = more features changed / larger toxic effect
CONDITIONS_USED: incubation time: 24h incubation; 29.9 µM
Where a name gives a salt, the structure may show the parent alone.
Give criterion met when the value for HeLa toxicity: nuclei-count effect normalised is at least 20%. Give criterion not met when it is less.

For orientation, consider the following solved cases.
COMPOUND: C[C@]1(O)C[C@@H](c2nc(-c3ccc4ccc(-c5ccccc5)nc4c3)c3c(N)nccn32)C1
CAT: criterion met

COMPOUND: CC(C)Cn1cnc2c(N)nc3ccccc3c21
CAT: criterion not met

COMPOUND: O=S(=O)(NCCNC/C=C/c1ccc(Br)cc1)c1cccc2cnccc12 [H 89 dihydrochloride]
CAT: criterion not met

COMPOUND: CNc1ccc2oc(C[C@H]3O[C@@]4(CC[C@H]3C)O[C@H]([C@H](C)C(=O)c3ccc[nH]3)[C@H](C)C[C@H]4C)nc2c1C(=O)O
CAT: criterion met

COMPOUND: CO[C@H]1[C@@H](OC)C[C@H](C)[C@@H](OC)C2=CC(=O)C=C(NC(=O)/C(C)=C/C=C/[C@H](OC)[C@@H](OC(N)=O)/C(C)=C/[C@@H]1C)C2=O
CAT: criterion met

COMPOUND: CCN(CC)C(=S)SSC(=S)N(CC)CC
CAT: criterion met

Please turn your attention to the following entry.
Hi team, for CCCCC(CC)C/N=C(\N)N/C(N)=N/CCCCCC/N=C(\N)N/C(N)=N/CC(CC)CCCC (stereo not given) [Alexidine dihydrochloride] , is the recorded HeLa toxicity: nuclei-count effect normalised at or above 20%?
criterion met

###

System: human spermatozoa
ASSAY_METHOD_TEXT: acrosome-reacted (PNA+) sperm after agonist cocktail, percent change vs DMSO (capacitating); higher = more of the measured sperm population than DMSO, for viability, fewer PI-positive (dead) cells than DMSO
CONDITIONS_USED: incubation time: 3h; 29.9 µM; capacitating + agonist cocktail 1h
Where a name gives a salt, the structure may show the parent alone.
QUANTITY_KIND: acrosome-reacted
Please append the unit to your numeric answer.

COMPOUND: CC(C)c1ccc2c(c1)CC[C@H]1[C@](C)(CN)CCC[C@]21C [Leelamine hydrochloride]
QUANTITY_KIND: acrosome-reacted
VALUE_OBSERVED: 60.2%
//
COMPOUND: CC(C)Cn1cnc2c(N)nc3ccccc3c21 [Imiquimod]
QUANTITY_KIND: acrosome-reacted
VALUE_OBSERVED: 56.5%

// Input: CCOc1ccccc1OCCN[C@H](C)Cc1ccc(OC)c(S(N)(=O)=O)c1 [Tamsulosin] . Output its acrosome-reacted only.
14.3%

// Input: Cc1[nH]c(/C=C2\C(=O)Nc3ccc(S(=O)(=O)Cc4c(Cl)cccc4Cl)cc32)c(C)c1C(=O)N1CCC[C@@H]1CN1CCCC1 . Output its acrosome-reacted only.
30.3%

// Input: NC(=O)c1cc(-c2ccc(S(=O)(=O)[C@H]3CC[C@H](Nc4ccc(C(F)(F)F)cn4)CC3)cc2)ccn1 [CCR6 inhibitor 1] . Output its acrosome-reacted only.
31%

// Input: CC1(C)CC=C(c2ccccc2)c2cc(/C=C/c3ccc(C(=O)O)cc3)ccc21 . Output its acrosome-reacted only.
7.54%

// Input: O=C(N1CCCCC1)N1CCCCC1Cc1ccccc1 (stereo not drawn) . Output its acrosome-reacted only.
7.82%

// Input: O=c1c(-c2ccc(O)cc2)coc2cc(O)cc(O)c12 [Genistein] . Output its acrosome-reacted only.
8.14%
